- Tested on: Plasmodium falciparum
- testName: NOVARTIS: Inhibition of Plasmodium falciparum W2 (drug-resistant) proliferation in erythrocyte-based infection assay
- Assay type: functional, organism-based
- testSettings: Plasmodium falciparum, W2; read-out: EC50

compound	systemUnderTest	EC50
CCCC(C)C(C(=O)NCc1ccccc1)N1C(=O)c2cc(NC(C)=O)ccc2NC(=O)[C@@H]1c1ccccc1 (stereo not given in full)	Plasmodium falciparum	< 7.12 nM
Cc1nn(C)cc1-c1nc2cnccn2c1NCC1CCCO1 (stereo not given)	Plasmodium falciparum	> 876 nM
C=CCOc1cccc(/C=C2/NC(C)=C(C(=O)OCC)C2=O)c1	Plasmodium falciparum	> 933 nM
O=C(O)[C@@H]1C[C@H](CP(=O)(O)O)CCN1	Plasmodium falciparum	> 1210 nM
COc1ccccc1CNc1ncc(C(=O)NCc2ccccc2)c(NCCc2ccccc2)n1	Plasmodium falciparum	> 1300 nM

Reference source for all entries: ChEMBL document CHEMBL1156829
